System: IL-1β
measurement_notes: IL-1β inhibition assay, LPS-induced PBMCs or CD14+ monocytes, Meso Scale
Type: cell-based
measurement_parameters: 100 ng/mL LPS 18-24 h
Item-by-item account of inhibition at 1 µM
assay_readout: inhibition at 1 µM

CN(C)c1ccc(NCC(=O)NCc2scc3c2CN(C2CCC(=O)NC2=O)C3=O)cc1Cl (centres unmarked) :: > 75%
Cc1ccc(NCC(=O)NCc2scc3c2CN(C2CCC(=O)NC2=O)C3=O)cc1N(C)C (centres unmarked) :: 50 to 75%
Cc1ccc(NCC(=O)NCc2cc3c(s2)CN(C2CCC(=O)NC2=O)C3=O)cc1Cl (centres unmarked) :: < 30%
Cc1ccc(NCC(=O)NCc2cccc3c2CN(C2CCC(=O)NC2=O)C3=O)cc1Cl (centres unmarked) :: > 75%
Cc1cc(NCC(=O)NCc2ccc3c(c2)CN(C2CCC(=O)NC2=O)C3=O)ccc1N(C)C (centres unmarked) :: < 30%
Cc1cc(NCC(=O)NCc2ccc3c(c2)CN(C2CCC(=O)NC2=O)C3=O)ccc1N1CCOCC1 (centres unmarked) :: 30 to 50%
Cc1ccc(NC(C)C(=O)NCc2scc3c2CN(C2CCC(=O)NC2=O)C3=O)cc1Cl (centres unmarked) :: > 75%
O=C(CNc1cccc(CN2CCOCC2)c1)NCc1scc2c1CN(C1CCC(=O)NC1=O)C2=O (centres unmarked) :: 30 to 50%

* * *

Test system: MOLM-13 cells
measurement_notes: MOLM-13 cell viability assay (CellTiter-Glo 2, 3 days, 2500 cells/well)
Format: cell-based
measurement_parameters: Homo sapiens, MOLM-13, 72 h, percentage of DMSO control
Protocol: MOLM-13 cells were cultured in RPMI 1640 media supplemented with 10% fetal bovine serum, streptomycin and penicillin, and were plated in white walled 96-well plates at 2500 cells/well. […] Following a 10 minutes incubation with shaking, luminescence was measured using the EnVision Multimode plate reader. The MOLM-13 cell viability values, measured as percentages of the DMSO control, are reported in Table 8 as “A”, “B”, “C”, or “D.” “A” represents a % viability value of less than 40% (value<40%). […]
Item-by-item account of viability at 1 µM
assay_readout: viability at 1 µM

Cc1ccc(NCC(=O)NCc2ccc3c(c2)C(=O)N(C2CCC(=O)NC2=O)C3=O)cc1Cl (stereo not drawn) [Compound 19] :: 60 to 90%
Cc1ccc(NCC(=O)NCc2scc3c2CN(C2CCC(=O)NC2=O)C3=O)cc1N(C)C (stereo not drawn) [Compound 4] :: > 90%
Cc1ccc(NCC(=O)NCc2csc3c2CN(C2CCC(=O)NC2=O)C3=O)cc1Cl (stereo not drawn) [Compound 5] :: < 40%
Cc1ccc(NCC(=O)NCc2ccc3c(c2)CN(C2CCC(=O)NC2=O)C3=O)cc1N1CCCC1 (stereo not drawn) [Compound 24] :: > 90%
Cc1ccc(NCC(=O)NCc2ccc3c(c2)CN(C2CCC(=O)NC2=O)C3=O)nc1Cl (stereo not drawn) [Compound 20] :: > 90%
Cc1ccc(NCC(=O)NCc2scc3c2CN(C2CCC(=O)NC2=O)C3=O)cc1Cl (stereo not drawn) [Compound 2] :: > 90%
Cc1cc(NCC(=O)NCc2ccc3c(c2)CN(C2CCC(=O)NC2=O)C3=O)ccc1N1CCCC1 (stereo not drawn) [Compound 21] :: < 40%
Cc1cc(NCC(=O)NCc2scc3c2CN(C2CCC(=O)NC2=O)C3=O)ccc1N(C)C (stereo not drawn) [Compound 10] :: > 90%
O=C(CNc1cccc(CN2CCOCC2)c1)NCc1scc2c1CN(C1CCC(=O)NC1=O)C2=O (stereo not drawn) [Compound 11] :: < 40%
Cc1ccc(NCC(=O)NCc2cccc3c2CN(C2CCC(=O)NC2=O)C3=O)cc1Cl (stereo not drawn) [Compound 14] :: 40 to 60%
O=C(CNc1ccccc1)NCc1ccc2c(c1)CN(C1CCC(=O)NC1=O)C2=O (stereo not drawn) [Compound 16] :: 60 to 90%
Cc1ccc(NCC(=O)NCc2ccc3c(c2)CN(C2CCC(=O)NC2=O)C3=O)cc1N(C)C (stereo not drawn) [Compound 18] :: > 90%
CC(C)(C)c1ccc(NCC(=O)NCc2ccc3c(c2)CN(C2CCC(=O)NC2=O)C3=O)cc1 (stereo not drawn) [Compound 17] :: 60 to 90%
Cc1cc(NCC(=O)NCc2ccc3c(c2)CN(C2CCC(=O)NC2=O)C3=O)ccc1N1CCOCC1 (stereo not drawn) [Compound 23] :: 40 to 60%
Cc1ccc(NCC(=O)NCc2ccc3c(c2)CN(C2CCC(=O)NC2=O)C3=O)cc1Cl (stereo not drawn) [Compound 1] :: > 90%

* * *

Test system: IL-1β
measurement_notes: IL-1β inhibition assay, LPS-induced PBMCs or CD14+ monocytes, Meso Scale
Type: cell-based
measurement_parameters: 100 ng/mL LPS 18-24 h
assay_readout: inhibition at 1 µM

Cc1cc(NCC(=O)NCc2ccc3c(c2)CN(C2CCC(=O)NC2=O)C3=O)ccc1N1CCCC1 (centres unmarked) :: < 30%
O=C(CNc1ccc(CN2CCOCC2)cc1)NCc1scc2c1CN(C1CCC(=O)NC1=O)C2=O (centres unmarked) :: 50 to 75%
Cc1ccc(NCC(=O)NCc2csc3c2CN(C2CCC(=O)NC2=O)C3=O)cc1Cl (centres unmarked) :: > 75%
Cc1ccc(NCC(=O)NCc2ccc3c(c2)CN(C2CCC(=O)NC2=O)C3=O)cc1N(C)C (centres unmarked) :: 30 to 50%
Cc1ccc(NCC(=O)NCc2ccc3c(c2)CN([C@H]2CCCC(=O)NC2=O)C3=O)cc1Cl :: < 30%
Cc1ccc(NCC(=O)NCc2ccc3c(c2)CN(C2CCC(=O)NC2=O)C3=O)nc1Cl (centres unmarked) :: < 30%
O=C(CNc1ccc(N2CCOCC2)c(Cl)c1)NCc1ccc2c(c1)CN(C1CCC(=O)NC1=O)C2=O (centres unmarked) :: 50 to 75%
Cc1ccc(NCC(=O)NCc2scc3c2CN(C2CCC(=O)NC2=O)C3=O)cc1Cl (centres unmarked) :: > 75%
